Test: NCI Yeast Anticancer Drug Screen. Data for the rad50 strain (AID 155);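 further: 0% = growth of vehicle-only cultures of the same strain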
Conditions: S. cerevisiae rad50 strain growth inhibition; at 50.0 µM; stronger effect = higher value
Method: Growth inhibition of yeast strains with defined genetic alterations is measured as a screen for potential anti-cancer activity. Selected strains with alterations in DNA damage repair or cell cycle control were exposed to compounds and growth inhibition was measured relative to vehicle treated controls. The strain used in this assay is rad50
About 79,000 compounds went through this panel and 15% of them were active in at least one assay; those are over-represented in the sample as a whole. Where a SMILES comes first, the peptide text is derived from it. The star is where a group is joined. Cbz = O=C(OCc1ccccc1)*
observed property: growth inhibition (%)

>>> value_reported("CC(O)C1CCCCC1O (stereo unspecified)")
5.15
>>> value_reported("COC(=O)/C=C(C)/C=C/c1cc(C(C)=O)c(C)o1")
-2.25
>>> value_reported("[CH3][Ge]([CH3])([CH3])/[C](=[C](\\c1ccccc1)[Ge]([CH3])([CH3])[CH3])c1ccccc1")
39.6
>>> value_reported("ON=C(C1CCCCC1)C1CCCCC1")
-7.35
>>> value_reported("COC1=NO[C@@H]2C=CO[C@H]12")
-8.2
>>> value_reported("S=C(Nc1ccc(N=Nc2ccccc2)cc1)SCc1ccc(Cl)cc1")
28.4
>>> value_reported("CCCCc1nc(C)oc1C(C)C")
-31.2
>>> value_reported("CC(Cl)C(=O)N(C)c1ccccc1 (stereo unspecified)")
3.6
>>> value_reported("Cc1c(C(=O)/C=C/c2ccc(N(C)C)cc2)c(=O)n(-c2ccccc2)n1C")
-7
>>> value_reported("CC(C)OC(=O)c1ccc(=O)oc1")
7.4
>>> value_reported("CCCCCCCC(=O)CC(C)C")
12.1
>>> value_reported("CCn1c(C)nc([N+](=O)[O-])c1Sc1ncc[nH]1")
-7.8
>>> value_reported("Nc1ccc(C(=O)NN2C(=O)C(Cl)C2c2ccc(O)cc2)cc1 (stereo unspecified)")
-1.75
>>> value_reported("O=[N+]([O-])c1ccc(F)cc1")
-1.3
>>> value_reported("Cc1cc(Cl)c2c(C)ccc(C)c2n1")
-4.25
>>> value_reported("COC(=O)c1oc([N+](=O)[O-])c(-c2ccccc2)c1-c1ccccc1")
6.95
>>> value_reported("COc1ccc(COC=O)cc1")
21.8
>>> value_reported("CC(O)C(NC(=O)C(Cc1ccc(O)cc1)NC(=O)OCc1ccccc1)C(=O)O (stereo not drawn) (Cbz-Tyr-Thr-OH; configuration not given here)")
-9.65
>>> value_reported("O=C(/C=C/c1ccc([N+](=O)[O-])cc1)NN=C(c1ccccc1)c1ccccc1")
-20.4
>>> value_reported("CC(=O)N1Cc2c(N)ncnc2C1C (stereo unspecified)")
-10.9
>>> value_reported("CC(C)(C)CC(=O)Nc1ccccc1")
28.9
>>> value_reported("CCN(CC)/[N+]([O-])=N/O")
26.6
>>> value_reported("C#CC(C)(C)CC")
21.4
>>> value_reported("CCCCCCCCCCCCCCCCC(=O)O")
-12.9
>>> value_reported("CC#CCOC(=O)c1ccccc1OC(C)=O")
27.8
>>> value_reported("CC1=C(C(=O)Nc2ccccc2)C(c2ccccc2)C(C(=O)Nc2ccccc2)=C(C)N1")
4.2

* * *

Catalogue of growth inhibition values
Assay: NCI Yeast Anticancer Drug Screen. Data for the mlh1 rad18 strain (AID 175)
Details: S. cerevisiae mlh1 rad18 strain growth inhibition; at 50.0 µM; stronger effect = higher value
Compounds without any hit were thinned out: in the full panel of roughly 79,000, 15% have a hit.
observed property: growth inhibition (%)

>>> value_reported("COC(=O)C1CSCN1 (configuration not stated)")
-12.8
>>> value_reported("OCCS")
-4.25
>>> value_reported("CCCCCCCCCCOc1ccc(C=NC/C=C/c2ccc(CC)cc2)cc1")
-23.4
>>> value_reported("CCCN(Cc1ccccc1)CC(O)c1ccc(Cl)cc1 (configuration not stated)")
20.1
>>> value_reported("O=c1cc(NCc2cccc3ccccc23)[nH]c(=O)[nH]1")
-7.1
>>> value_reported("Nc1ncnc2c1nnn2CC(O)CO (configuration not stated)")
5.2
>>> value_reported("CN(C)c1ccc(C(=N)c2ccc(N(C)C)cc2)cc1")
-0.15

* * *

Test: NCI Yeast Anticancer Drug Screen. Data for the sgs1 mgt1 strain (AID 161);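 further: 0% = growth of cultures given vehicle only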
Conditions: S. cerevisiae sgs1 mgt1 strain, at 50.0 µM, stronger effect = higher value
The panel holds about 79,000 compounds, 15% with a hit somewhere; the sample as a whole holds those more often.
observed property: growth inhibition (%)

>>> value_reported("COc1ccc(N=C2C(=Nc3ccc(OC)cc3)N(c3ccccc3[N+](=O)[O-])C(=S)N2c2ccc(OC)cc2)cc1")
10.7
>>> value_reported("[N-]=[N+]=C(C(=O)N1CCCC1=O)S(=O)(=O)c1ccccc1")
-17.9
>>> value_reported("O=C(O)Cc1ccccc1-c1ccccc1")
-19.2
>>> value_reported("CCOC(=O)C(C)(C(=O)OCC)C(C)Cc1cccc2ccccc12 (stereo unspecified)")
-4.45
>>> value_reported("CSc1sc2ccc(S(=O)(=O)O)cc2[n+]1C")
15.7
>>> value_reported("O=C(Nc1ccccc1)OCC(CN1CCCCC1)OC(=O)Nc1ccccc1 (stereo unspecified)")
-13.8
>>> value_reported("Fc1ccc2cc3cccc[n+]3cc2c1")
32.4
>>> value_reported("COC(=O)c1cc(C(=O)OC)cc([N+](=O)[O-])c1")
8.75
>>> value_reported("CCN(CC)C(=S)SCCO")
6.15
>>> value_reported("Cc1nc2[nH]cc(-c3ccccc3)c2c(=N)n1-c1ccc(F)cc1")
-11.2
>>> value_reported("COC(=O)/C=C(\\C(=O)OC)C1=C(N2CCCC2)CC(C)(C)CC1=O")
-14.1

* * *

Assay: NCI Yeast Anticancer Drug Screen. Data for the cln2 rad14 strain (AID 165);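 further: 0% = growth equal to vehicle treated cultures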
Settings: S. cerevisiae cln2 rad14 strain, at 50.0 µM, stronger effect = higher value
About 79,000 compounds went through this panel and 15% of them were active in at least one assay; those are over-represented in the sample as a whole.
observed property: growth inhibition (%)

>>> value_reported("CC(=O)Nc1nc(C)c(CC/C=C/c2ccc([N+](=O)[O-])cc2)c(Cl)n1")
-6.35
>>> value_reported("Cc1c(C)c(C)c(CN2CCC(C)CC2)c(C)c1C")
-17.6
>>> value_reported("CC12CCC(=O)C=C1CCC1C2C(=O)CC2(C)C1CCC2(O)C(=O)Cn1cc(F)c(=O)[nH]c1=O (stereo not given)")
11.9
>>> value_reported("COC(=O)C1=NOC(Cc2ccccc2)C1 (stereo not given)")
-35.4
>>> value_reported("COC(=O)c1nc(=S)[nH]c(C(=O)OC)c1C(=O)c1cccnc1")
4.25
>>> value_reported("CCOCCC(O)CC (stereo not given)")
17.7
>>> value_reported("Cc1cc(=O)[nH]c(NNC(C#N)c2ccccc2O)n1 (stereo not given)")
-12
>>> value_reported("CCC1(C2C=COC=C2)NC(=O)NC1=O (stereo not given)")
6.45
>>> value_reported("COc1cccc(C2CC(C)(N3CCCC3)Oc3cc4c(cc32)OCO4)c1O (stereo not given)")
13.8
>>> value_reported("O=C(NC(=O)c1cn(CCN(CCO)C(=O)NCCCCCCNC(=O)N(CCO)CCn2cc(C(=O)NC(=O)OCc3ccccc3)c(=O)[nH]c2=O)c(=O)[nH]c1=O)OCc1ccccc1")
-23.9

* * *

Assay: NCI Yeast Anticancer Drug Screen. Data for the mec2-1 strain (AID 157)
Settings: S. cerevisiae mec2-1 strain, at 50.0 µM
This is part of a sample that, as a whole, favours compounds with a hit. Of some 79,000 tested, about 15% had one in any assay. Activity calls are given as the source filed them. No stated cut-off is given here; in the data, active means growth inhibition above about 70%; inactive means the rest.
Outcome codes: 1 (yes) = active, 0 (no) = inactive

>>> discrete_label("Cc1cccc(C(C#N)C(=O)CCCC(=O)Nc2ccccc2[N+](=O)[O-])c1 (stereo unspecified)")
"0 (no)"
>>> discrete_label("O=C(O)c1cccc(Br)c1")
"0 (no)"
>>> discrete_label("Cn1cnc2c1S(=O)(=O)NCN2")
"0 (no)"
>>> discrete_label("O=NC1CCCCC1Cl (stereo unspecified)")
"0 (no)"
>>> discrete_label("CC1=C(CO)C(=O)O[C@@H]([C@@H](C)[C@H]2CC[C@H]3[C@@H]4C[C@H]5O[C@]56[C@@H](O)C=CC(=O)[C@]6(C)[C@H]4CC[C@]23C)C1")
"1 (yes)"
>>> discrete_label("CC1(C)Cc2ccccc2C(C)(Cl)C(=O)N1 (stereo unspecified)")
"0 (no)"
>>> discrete_label("Oc1ccccc1CN1CCOCC1 (tested in a mixture with another compound)")
"0 (no)"
>>> discrete_label("Clc1ccc2c(c1)N(C1CCCN(Cc3ccccc3)C1)c1ccccc1S2 (stereo unspecified)")
"0 (no)"
>>> discrete_label("O=c1[nH]cnc2sc3c(c12)CCC3")
"0 (no)"
>>> discrete_label("CC(O)C1CCCCC1O (stereo unspecified)")
"0 (no)"
>>> discrete_label("O=S(=O)(/N=c1/ccc(NS(=O)(=O)c2ccccc2)cn1O)c1ccccc1")
"0 (no)"
